assay.target: T1, soluble human FcRn (human, UniProt P55899 24-297; P61769 21-119, biotinylated (Sulfo-NHS-LC-Biotin) in the ELISA; amine-coupled to CM5 chip in SPR)
T1 construct: also called shFcRn; biotinylated shFcRn
T1 sequence (P55899 24-297 limits assumed, chain 1 of 2): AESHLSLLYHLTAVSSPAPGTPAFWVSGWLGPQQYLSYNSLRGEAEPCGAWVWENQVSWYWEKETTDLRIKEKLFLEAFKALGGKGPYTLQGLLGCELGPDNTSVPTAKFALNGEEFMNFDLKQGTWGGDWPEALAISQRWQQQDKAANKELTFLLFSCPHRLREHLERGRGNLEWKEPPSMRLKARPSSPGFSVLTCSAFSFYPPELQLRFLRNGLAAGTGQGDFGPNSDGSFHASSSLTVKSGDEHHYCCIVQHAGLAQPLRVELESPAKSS
T1 sequence (P61769 21-119 limits assumed, chain 2 of 2): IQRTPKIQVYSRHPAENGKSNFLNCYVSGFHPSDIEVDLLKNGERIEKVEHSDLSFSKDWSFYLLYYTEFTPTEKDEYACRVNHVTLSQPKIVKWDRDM
assay.name: SPR, pH 6
Bridge positions count the residues as written; N and C are the ends. Ends that are not written are not given here.
Documented pKd across a set of binders
// pKd: -log10(molar conc.)

Would you please look over these solved cases?
RFXTGXFGGLYPC (Pen at 3; 4-PyridylAla at 6; Sar at 9; NMeLeu at 10; disulfide; C-terminal amide) [Peptide No. 268] : 7.17
QRFXTGXFGGLYPCNGP (Pen at 4; (1Me)His at 7; disulfide; C-terminal amide) [Peptide No. 138] : 6.13
RFXTGXFGGLYPC (not fully specified; Pen at 3; Thz at 6; Sar at 9; NMeLeu at 10; disulfide; C-terminal amide) [Peptide No. 248] : 6.08
RFXTGXFGGLYPC (Pen at 3; Orn at 6; Sar at 9; NMeLeu at 10; disulfide; C-terminal amide) [Peptide No. 254] : 5.89
RFXTGXFGGLYPC (not fully specified; Pen at 3; ThienylAla at 6; Sar at 9; NMeLeu at 10; disulfide; C-terminal amide) [Peptide No. 251] : 5.70

Fill in pKd for record RFXTGXFGGLYPC (not fully specified; Pen at 3; His(Me) (mono-methylated histidine) at 6; disulfide; C-terminal amide) [Peptide No. 259] 6.85

Fill in pKd for record QRFCTGHFGGLYPCNGP-NH2 (disulfide 4-14 (inferred)) [SEQ ID NO:1] 5.29
